Test system: SK-MEL-28
Test: SRB colorimetric assay of cell growth and viability, SK-MEL-28
Assay type: cell-based, human
Conditions: 48 hours exposure
Description: The finality of this assay is to interrupt the growth of a “in vitro” tumor cell culture by means a continued exhibition of the cells to the sample to be testing. […] Cells are seeded in 96 well microtiter plates, at 5×10^3 cells per well in aliquots of 195 μL medium, and they are allowed to attach to the plate surface by growing in drug free medium for 18 hours. […] Optical densities are read on a automated spectrophotometric plate reader at a single wavelength of 490 nm. […]
Where a SMILES comes first, the peptide text is derived from it. Bridges are numbered along the chain shown (N, C = ends). [ ]: non-standard residue; d: D form. The star is where a group is joined. d(aIle) = CC[C@H](C)[C@@H](N)C(=O)O; d(aThr) = C[C@@H](O)[C@@H](N)C(=O)O; Hexanoyl(5-Me) = CC(C)CCCC(=O)*; Orn = NCCC[C@H](N)C(=O)O; Dhb = C/C=C(\N)C(=O)O
readout_kind: GI50 (nM)
A number alone suffices; assume nM.

[[record]]
compound = "C/C=C1\\NC(=O)[C@H](Cc2ccccc2)NC(=O)[C@@H](C(C)C)NC(=O)[C@@H]([C@@H](C)CC)NC(=O)[C@H](NC(=O)[C@H](NC(=O)[C@H](CCCN)NC(=O)[C@H]2CCCN2C(=O)[C@H](NC(=O)[C@@H](NC(=O)[C@@H](NC(=O)[C@@H](NC(=O)CCCC(C)C)C(C)C)[C@@H](C)O)C(C)C)C(C)C)[C@@H](C)CC)[C@@H](C)OC(=O)[C@H](C(C)C)NC1=O [Compound 38, [Val^13]-KF]"
readout_kind = "GI50"
reading_unit = "nM"
data_value = 805

[[record]]
compound = "C/C=C1\\NC(=O)[C@H](Cc2ccccc2)NC(=O)[C@@H](C(C)C)NC(=O)[C@@H]([C@@H](C)CC)NC(=O)[C@H](NC(=O)[C@H](NC(=O)[C@H](CCCN)NC(=O)[C@H]2CCCN2C(=O)[C@H](NC(=O)[C@@H](NC(=O)[C@@H](NC(=O)[C@@H](CCC(N)=O)NC(=O)CCCC(C)C)[C@@H](C)O)C(C)C)C(C)C)[C@@H](C)CC)[C@@H](C)OC(=O)[C@H](C(C)C)NC1=O [Compound 40, [D-Gln^13]-KF]"
readout_kind = "GI50"
reading_unit = "nM"
data_value = 1220

[[record]]
compound = "C/C=C1\\NC(=O)[C@H](Cc2ccccc2)NC(=O)[C@@H](C(C)C)NC(=O)[C@@H]([C@@H](C)CC)NC(=O)[C@H](NC(=O)[C@H](NC(=O)[C@H](CCCN)NC(=O)[C@H]2CCCN2C(=O)[C@H](NC(=O)[C@@H](NC(=O)[C@@H](NC(=O)[C@H](NC(=O)c2ccc(C)cc2)C(C)C)[C@@H](C)O)C(C)C)C(C)C)[C@@H](C)CC)[C@@H](C)OC(=O)[C@H](C(C)C)NC1=O [Compound 19, [p-MeBza^14]-KF]"
readout_kind = "GI50"
reading_unit = "nM"
data_value = 1160


Then there is this compound:
Qu. Retrieve GI50 measured for C/C=C1\NC(=O)[C@H](Cc2ccccc2)NC(=O)[C@@H](C(C)C)NC(=O)[C@@H]([C@@H](C)CC)NC(=O)[C@H](NC(=O)[C@H](NC(=O)[C@H](CCCN)NC(=O)[C@H]2CCCN2C(=O)[C@H](NC(=O)CCCC(C)C)C(C)C)[C@@H](C)CC)[C@@H](C)OC(=O)[C@H](C(C)C)NC1=O [Compound 31, [noVal^11, noThr^12, noD-Val^13]-KF] ({Hexanoyl(5-Me)}-[dV][dP][Orn][d(aIle)][d(aThr)][d(aIle)][dV]F[Dhb]V; ester 5-C) and print it.
Ans. 4210
